- Test system: PRKD2
- CONDITION SET: concentration: 1 μM, replicates: in singlicate; n = 1
# %Inh values compiled below
Kindly answer with a numeric value in %, unit omitted.

# example entries with known answers
MOLECULE SMILES	UNIT NAME	%Inh
COc1cccc(C2=C(Nc3ccc(Cl)c(C(=O)O)c3)C(=O)NC2=O)c1	%	6
CC(C)c1nc(-c2cccc(NS(=O)(=O)c3c(F)cccc3F)c2F)c(-c2ccnc(Nc3ccc(N4CCOCC4)nc3)n2)s1	%	99.2
O=C(Nc1cccc(-c2nn3ncccc3c2-c2ccnc(Nc3ccccc3)n2)c1)c1c(F)cccc1F	%	20
COCCOCCOc1cc2ncc3c4ccc(C#N)cc4[nH]c3c2cc1OC	%	0
COC(=O)Nc1nc2cc(Oc3ccc(NC(=O)Nc4cc(C(F)(F)F)ccc4F)cn3)ccc2[nH]1.Cl.Cl	%	9
CC(=O)Nc1nc2cnc(Nc3cc(NC(=O)c4cccc(C5(C#N)CC5)c4Cl)ccc3C)nc2s1	%	4

Lookup: State its %Inh on PRKD2: `CCn1c(-c2nonc2N)nc2c(C#CC(C)(C)O)nc(OC[C@H](N)c3ccccc3)cc21`
Found: 17

Lookup: API: value(readout= %Inh, system= PRKD2, query= `CCc1ccc(-c2ccc3c(c2)-c2c(cnn2C)S(=O)(=O)N3C)cc1` );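 note: KINOMEscan kinase panel screen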
Found: 14
